# test.details: Equilibrium (apparent) solubility of APR, shake flask method
# Type: physicochemical
# conditions: Propylene glycol (cosolvent), 25 °C, organic solvent or mixture, thermodynamic from solid, cosolvent Propylene glycol, 25 °C; read-out: APR solubility
# Procedure: The solubility of APR in various buffers, oils, surfactants, cosurfactants, cosolvents, and formulations was measured using the shake flask method. Briefly, an excess APR was added into a polypropylene tube that contains a medium. Tube mixed by a vortex (Daihan VM-10, South Korea) for 1 min to disperse APR. Mixtures were shaken at 100 rpm for 24 h at various temperatures in a thermostatically controlled shaking water bath (Nüve ST30, Turkey). […]

smiles.input	solubility at 24 h / µg/mL
C[C@@H](O[C@H]1OCCN(Cc2nc(=O)[nH][nH]2)[C@H]1c1ccc(F)cc1)c1cc(C(F)(F)F)cc(C(F)(F)F)c1	8380

---

# test.details: Equilibrium (apparent) solubility of APR, shake flask method
# Type: physicochemical
# conditions: Sesame oil (oily excipient), 25 °C, oil or lipid, thermodynamic from solid, oily excipient Sesame oil, 25 °C; read-out: APR solubility

smiles.input	solubility at 24 h, µg/mL
C[C@@H](O[C@H]1OCCN(Cc2nc(=O)[nH][nH]2)[C@H]1c1ccc(F)cc1)c1cc(C(F)(F)F)cc(C(F)(F)F)c1	2230

---

# test.details: Equilibrium (apparent) solubility of APR, shake flask method
# Assay type: physicochemical
# conditions: blank SNEDDS preconcentrate, 37 °C, organic solvent or mixture, thermodynamic from solid, Imwitor 988:Kolliphor RH40:Transcutol P (%) 20:70:10, 37 °C; read-out: APR solubility (loading capacity of SNEDDS preconcentrate)
observable: solubility at 24 h

compound	observable	val
C[C@@H](O[C@H]1OCCN(Cc2nc(=O)[nH][nH]2)[C@H]1c1ccc(F)cc1)c1cc(C(F)(F)F)cc(C(F)(F)F)c1 [APR]	solubility at 24 h	15.8 mg/mL

---

# test.details: Equilibrium (apparent) solubility of APR, shake flask method
# Type: physicochemical
# conditions: Lauroglycol FCC (cosurfactant), 25 °C, organic solvent or mixture, thermodynamic from solid, cosurfactant Lauroglycol FCC, 25 °C; read-out: APR solubility
observable: solubility at 24 h (mg/mL)

smiles.input	observable	val
C[C@@H](O[C@H]1OCCN(Cc2nc(=O)[nH][nH]2)[C@H]1c1ccc(F)cc1)c1cc(C(F)(F)F)cc(C(F)(F)F)c1	solubility at 24 h	14.2

---

# test.details: Equilibrium (apparent) solubility of APR, shake flask method
# Assay type: physicochemical
# conditions: Olive Yağı (oily excipient), 25 °C, oil or lipid, thermodynamic from solid, oily excipient Olive Yağı, 25 °C; read-out: APR solubility

compound	unit.abbreviation	solubility at 24 h
C[C@@H](O[C@H]1OCCN(Cc2nc(=O)[nH][nH]2)[C@H]1c1ccc(F)cc1)c1cc(C(F)(F)F)cc(C(F)(F)F)c1 [APR]	µg/mL	181

---

# test.details: Equilibrium (apparent) solubility of APR, shake flask method
# Type: physicochemical
# conditions: Maisine CC (oily excipient), 25 °C, oil or lipid, thermodynamic from solid, oily excipient Maisine CC, 25 °C; read-out: APR solubility

smiles.input	solubility at 24 h
C[C@@H](O[C@H]1OCCN(Cc2nc(=O)[nH][nH]2)[C@H]1c1ccc(F)cc1)c1cc(C(F)(F)F)cc(C(F)(F)F)c1	5360 µg/mL

This collection of values is drawn from paper PMC8621193.
